These entries and their values trace back to ChEMBL document CHEMBL5725497.

- target: Substance-P receptor (Homo sapiens, UniProt P25103)
- Sequence (P25103 whole entry): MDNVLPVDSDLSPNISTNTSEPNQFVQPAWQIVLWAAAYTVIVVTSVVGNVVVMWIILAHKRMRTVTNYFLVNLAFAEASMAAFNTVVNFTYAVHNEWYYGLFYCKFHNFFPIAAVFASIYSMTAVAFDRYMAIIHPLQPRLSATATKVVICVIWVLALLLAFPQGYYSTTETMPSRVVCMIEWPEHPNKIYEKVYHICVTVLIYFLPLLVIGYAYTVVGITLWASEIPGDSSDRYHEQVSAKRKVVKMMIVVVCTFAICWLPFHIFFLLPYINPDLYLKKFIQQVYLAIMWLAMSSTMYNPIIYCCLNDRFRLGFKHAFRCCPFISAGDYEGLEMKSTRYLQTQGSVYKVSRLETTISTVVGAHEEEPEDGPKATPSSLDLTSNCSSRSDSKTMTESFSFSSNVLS
- method notes: Receptor Binding Assay: The buffer solution for the receptor binding test was dispensed to the wells of a 96-well assay plate (Greiner) at 22.5 μL/well. DMSO solutions of a test compound, which were prepared at an 80-time higher concentration using 100% dimethyl sulfoxide (DMSO), were added to the wells at 2.5 μL/well (final concentrations of 1 nM to 100 nM), and the solutions were mixed. As a radiolabeled ligand, 125I-substance P (Substance P, [125I]Tyr8-, PerkinElmer) was used. 125I-substance P was diluted with the buffer solution for the receptor binding test to a concentration resulting in 125 pmol/25 μL/well and added to the 96-well assay plate, and the solutions were mixed. The membrane fraction prepared from the human NK1 receptor-expressing cells was diluted with the buffer solution for the receptor binding test to a concentration resulting in 8 to 10 μg/well, suspended until the suspension became in such a homogenous state that the suspension could flow through a 27 G injection needle smoothly and then added to the 96-well assay plate at 150 μL/well. Then, the plate was incubated at room temperature for 60 minutes while shaking the plate. The reaction solutions were suction-filtered through a multiscreen 96-well filter plate (Millipore) which had been pre-treated with 0.3% polyethyleneimine, and the reaction was terminated by washing with a washing solution (50 mM Tris and 0.02% bovine serum albumin, pH 7.4) four times. The bottom of the microplate was dried at 60° C., and then 100 μL/well of MicroScint 20 (PerkinElmer) was dispensed to the wells. The top of the plate was sealed with TopSeal A (PerkinElmer), and the plate was shaken for 5 to 10 minutes. Then, the radioactivities were measured with TopCount NXT (registered trademark) (PerkinElmer). […] The binding rate (%) of 125I-substance P=(the radioactivity of the group to which the test compound was added)/(the radioactivity of the group to which the vehicle was added)×100 was calculated. Using analysis software, GraphPad Prism (GraphPad Software), the binding rate (%) was plotted against the concentration of the test compound and linearly approximated, and the concentration required for 50% inhibition, IC50, was calculated.
observable: IC50 (nM)

molecule	observable	readout unit	value reported
Cc1cc(F)ccc1-c1cc(C2CCC(CC(=O)O)CC2)nc(Cl)c1N(C)C(=O)C(C)(C)c1cc(C(F)(F)F)cc(C(F)(F)F)c1 (stereo unspecified)	IC50	nM	5.51
